Target: T1, human IL-12 (human, UniProt P29460 23-328; P29459 23-219)
T1 construct: also called Interleukin-12
T1 sequence 1: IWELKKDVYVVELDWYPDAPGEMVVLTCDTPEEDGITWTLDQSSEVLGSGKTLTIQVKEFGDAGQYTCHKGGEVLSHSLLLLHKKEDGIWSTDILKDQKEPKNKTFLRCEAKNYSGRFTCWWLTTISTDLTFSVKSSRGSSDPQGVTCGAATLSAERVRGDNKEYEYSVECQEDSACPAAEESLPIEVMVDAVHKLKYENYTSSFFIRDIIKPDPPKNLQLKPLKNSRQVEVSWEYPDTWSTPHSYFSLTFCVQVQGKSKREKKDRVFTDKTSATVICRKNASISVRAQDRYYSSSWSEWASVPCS
T1 sequence 2: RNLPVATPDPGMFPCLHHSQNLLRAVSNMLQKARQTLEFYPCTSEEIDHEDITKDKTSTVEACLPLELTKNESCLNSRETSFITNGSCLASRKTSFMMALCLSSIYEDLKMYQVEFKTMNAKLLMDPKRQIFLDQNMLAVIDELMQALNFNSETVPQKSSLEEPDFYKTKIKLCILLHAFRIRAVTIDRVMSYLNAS
Assay: SPR (Biacore T200), 37 C, pH 7.4; captured antibody, IL-12 analyte
Reported Kd by item:

binder: Anti-IL-12 antibody Ab1 variant -/L46Q VL (antibody, V domains shown, Ab1 with VH/VL interface substitutions; Kabat numbering) VH: QVQLVQSGAEVKKPGSSVKVSCKASGGTFSDYYLHWVRQAPGQGLEWMGWIDPENGDTEYAPKFQGRVTITADESTSTAYMELSSLRSEDTAVYYCARNKELRYFDVWGQGTLVTVSS VL: DIVMTQSPLSLPVTPGEPASISCRASQSISINLHWYQQKPGQAPRQLIYFASQSISGVPSRFSGSGSGTDFTLTISSLQPEDFATYYCQQSNSFPLTFGQGTKVEIKR
result: 1.62 nM

binder: Anti-IL-12 antibody Ab1 variant V37S, F100aI VH/L46Q, Y49A VL (antibody, name in Kabat numbering, V domains shown, Ab1 with VH/VL interface substitutions; Kabat numbering) VH: QVQLVQSGAEVKKPGSSVKVSCKASGGTFSDYYLHWSRQAPGQGLEWMGWIDPENGDTEYAPKFQGRVTITADESTSTAYMELSSLRSEDTAVYYCARNKELRYIDVWGQGTLVTVSS VL: DIVMTQSPLSLPVTPGEPASISCRASQSISINLHWYQQKPGQAPRQLIAFASQSISGVPSRFSGSGSGTDFTLTISSLQPEDFATYYCQQSNSFPLTFGQGTKVEIKR
result: 2.98 nM

Look up and state reported Kd for Anti-IL-12 antibody Ab1 variant -/Y87L VL (antibody, V domains shown, Ab1 with VH/VL interface substitutions; Kabat numbering) VH: QVQLVQSGAEVKKPGSSVKVSCKASGGTFSDYYLHWVRQAPGQGLEWMGWIDPENGDTEYAPKFQGRVTITADESTSTAYMELSSLRSEDTAVYYCARNKELRYFDVWGQGTLVTVSS VL: DIVMTQSPLSLPVTPGEPASISCRASQSISINLHWYQQKPGQAPRLLIYFASQSISGVPSRFSGSGSGTDFTLTISSLQPEDFATYLCQQSNSFPLTFGQGTKVEIKR
1.46 nM
